B1: CDC25A (parent)
chain: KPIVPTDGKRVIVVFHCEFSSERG

# Variants of: B1
# assay_details: protein stability index of a GFP-peptide fusion (GPS, HEK-293T) (PSI 1-6); higher = more stable;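 also: lentivirally expressed fusions sorted by FACS into six bins by GFP to DsRed ratio, PSI derived from sequencing read proportions per bin multiplied by bin number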
# condition_label: c terminus: a fixed tail appended
Grouping key: protein stability index. Bins: class 1 = under 2, class 2 = from 2 up to 3, class 3 = 3 and over

{"variant_annotation": "P2L", "category": "class 1"}
{"variant_annotation": "F19W", "category": "class 1"}

[in] // return the class label for V4I
[out] class 2

[in] // return the class label for T6S
[out] class 1
